Data provenance is ChEMBL document CHEMBL4602617.

# TEST SYSTEM: Serine/threonine-protein kinase PAK 4 (Homo sapiens)
# Sequence (O96013 whole entry, the tested form may be a part): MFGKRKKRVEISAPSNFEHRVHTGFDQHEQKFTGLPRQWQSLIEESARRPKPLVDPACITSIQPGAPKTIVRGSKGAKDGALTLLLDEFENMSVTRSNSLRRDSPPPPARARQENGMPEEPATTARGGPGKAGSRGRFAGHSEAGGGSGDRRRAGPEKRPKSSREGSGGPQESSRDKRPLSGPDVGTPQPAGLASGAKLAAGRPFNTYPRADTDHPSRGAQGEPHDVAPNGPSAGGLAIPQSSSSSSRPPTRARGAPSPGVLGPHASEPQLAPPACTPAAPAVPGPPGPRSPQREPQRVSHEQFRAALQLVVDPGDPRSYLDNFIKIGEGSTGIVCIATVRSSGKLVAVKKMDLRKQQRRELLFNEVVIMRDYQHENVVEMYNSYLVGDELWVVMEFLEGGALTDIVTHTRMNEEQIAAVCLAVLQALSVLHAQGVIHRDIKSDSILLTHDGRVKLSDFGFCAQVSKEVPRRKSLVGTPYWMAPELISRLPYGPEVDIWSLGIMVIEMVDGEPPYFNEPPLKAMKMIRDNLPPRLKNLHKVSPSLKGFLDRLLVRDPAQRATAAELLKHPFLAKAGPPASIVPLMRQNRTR
# ASSAY NOTES: Inhibition of recombinant human GST-tagged PAK4 catalytic domain (295 to 591 residues) expressed in baculovirus expression system using serine/threonine-20 peptide as substrate incubated for 60 mins in presence of ATP by Z'-LYTE assay
pIC50: −log10 of the molar value.
ENDPOINT LABEL: pIC50

Serine/threonine-protein kinase PAK 4 (Homo sapiens) assay, compound C[C@@H]1C[C@H]1C(=O)N1CCN(c2cnc(C#N)c(-c3cnn(C)c3)n2)C[C@H]1C , recorded pIC50 = < 4.00

----------
# TEST SYSTEM: Voltage-gated inwardly rectifying potassium channel KCNH2 (Homo sapiens, UniProt Q12809)
# Sequence (Q12809 whole entry): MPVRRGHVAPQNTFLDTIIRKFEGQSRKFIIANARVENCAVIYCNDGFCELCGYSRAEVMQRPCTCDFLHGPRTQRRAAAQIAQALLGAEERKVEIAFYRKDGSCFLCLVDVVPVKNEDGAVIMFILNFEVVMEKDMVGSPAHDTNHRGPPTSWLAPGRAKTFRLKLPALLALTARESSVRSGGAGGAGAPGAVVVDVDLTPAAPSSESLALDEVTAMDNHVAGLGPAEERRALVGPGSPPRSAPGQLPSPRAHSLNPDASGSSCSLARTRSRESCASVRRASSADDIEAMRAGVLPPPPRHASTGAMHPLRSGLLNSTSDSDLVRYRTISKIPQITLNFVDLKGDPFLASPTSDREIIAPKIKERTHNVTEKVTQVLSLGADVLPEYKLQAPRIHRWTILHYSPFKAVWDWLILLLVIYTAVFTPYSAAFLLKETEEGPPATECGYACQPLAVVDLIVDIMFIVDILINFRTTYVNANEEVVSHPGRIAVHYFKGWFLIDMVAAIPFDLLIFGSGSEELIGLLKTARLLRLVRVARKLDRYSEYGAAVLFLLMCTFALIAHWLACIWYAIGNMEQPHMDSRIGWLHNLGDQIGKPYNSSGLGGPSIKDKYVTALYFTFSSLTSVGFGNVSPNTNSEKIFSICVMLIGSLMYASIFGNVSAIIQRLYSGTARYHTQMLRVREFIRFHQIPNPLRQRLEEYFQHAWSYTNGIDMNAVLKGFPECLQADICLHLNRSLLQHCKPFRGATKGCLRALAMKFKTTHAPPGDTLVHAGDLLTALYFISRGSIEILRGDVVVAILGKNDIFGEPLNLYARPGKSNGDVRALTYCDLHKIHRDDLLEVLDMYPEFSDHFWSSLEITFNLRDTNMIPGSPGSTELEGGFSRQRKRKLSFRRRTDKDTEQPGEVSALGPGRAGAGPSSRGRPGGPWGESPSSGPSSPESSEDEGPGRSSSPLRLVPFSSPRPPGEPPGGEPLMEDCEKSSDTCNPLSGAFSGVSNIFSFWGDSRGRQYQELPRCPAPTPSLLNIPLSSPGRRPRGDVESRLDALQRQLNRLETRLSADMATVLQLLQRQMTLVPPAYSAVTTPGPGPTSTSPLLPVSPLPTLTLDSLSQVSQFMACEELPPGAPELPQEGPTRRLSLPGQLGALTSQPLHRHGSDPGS
ENDPOINT LABEL: IC50 (µM)
Kindly provide the numeric value in µM only, without the unit symbol.

So the reported IC50 for C[C@@H]1C[C@H]1C(=O)N1CCN(c2cnc(C#N)c(-c3cnn(C)c3)n2)C[C@H]1C , on Voltage-gated inwardly rectifying potassium channel KCNH2 (Homo sapiens, UniProt Q12809), turned out to be 23
